Molecular target: Beta Secretase enzyme (BACE) (Homo sapiens (Human), UniProt P56817)
Sequence (P56817 46-501): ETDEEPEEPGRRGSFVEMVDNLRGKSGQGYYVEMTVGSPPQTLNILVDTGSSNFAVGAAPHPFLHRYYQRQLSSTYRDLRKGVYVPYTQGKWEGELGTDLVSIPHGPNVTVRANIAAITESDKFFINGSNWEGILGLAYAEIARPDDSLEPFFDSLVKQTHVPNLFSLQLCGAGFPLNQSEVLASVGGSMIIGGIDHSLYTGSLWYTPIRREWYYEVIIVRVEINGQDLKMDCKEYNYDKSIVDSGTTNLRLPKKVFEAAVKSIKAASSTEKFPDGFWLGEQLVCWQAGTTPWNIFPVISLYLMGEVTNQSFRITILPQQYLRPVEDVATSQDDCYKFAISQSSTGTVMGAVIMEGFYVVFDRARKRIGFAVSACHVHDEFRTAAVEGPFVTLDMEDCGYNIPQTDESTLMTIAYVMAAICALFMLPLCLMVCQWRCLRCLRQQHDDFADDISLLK
Assay: In vitro enzymatic BACE FRET assay
Format: biochemical
Conditions: read-out: BACE1 Enzyme assay IC50
pIC50: −log10 of the molar value.
property.measured: pIC50

Examples with answers:
{"input.smiles": "COc1cnc(C(=O)Nc2cc(F)c(Cl)c([C@@]3(CF)N=C(N)O[C@@H]4C[C@@H]43)c2)cn1", "test.system": "Beta Secretase enzyme (BACE) (Homo sapiens (Human), UniProt P56817)", "pIC50": 7.26}
{"input.smiles": "N#Cc1cnc(C(=O)Nc2ccc(F)c([C@@]3(CF)N=C(N)O[C@@H]4C[C@@H]43)c2)c(Cl)c1", "test.system": "Beta Secretase enzyme (BACE) (Homo sapiens (Human), UniProt P56817)", "pIC50": 7.38}
{"input.smiles": "N#Cc1cnc(C(=O)Nc2ccc(Cl)c([C@@]3(CF)N=C(N)O[C@@H]4C[C@@H]43)c2)c(CO)c1", "test.system": "Beta Secretase enzyme (BACE) (Homo sapiens (Human), UniProt P56817)", "pIC50": 7.41}
{"input.smiles": "NC1=N[C@@](c2cc(NC(=O)c3nn(C(F)F)cc3Cl)ccc2Cl)(C(F)F)[C@H]2C[C@H]2O1", "test.system": "Beta Secretase enzyme (BACE) (Homo sapiens (Human), UniProt P56817)", "pIC50": 7.98}
{"input.smiles": "C[C@@]1(c2nc(NC(=O)c3ccc(Cl)cn3)ccc2F)N=C(N)O[C@H]2C[C@H]21", "test.system": "Beta Secretase enzyme (BACE) (Homo sapiens (Human), UniProt P56817)", "pIC50": 5.67}
{"input.smiles": "COc1cnc(C(=O)Nc2cc(Cl)c(F)c([C@@]3(CF)N=C(N)O[C@@H]4C[C@@H]43)c2)c(C)n1", "test.system": "Beta Secretase enzyme (BACE) (Homo sapiens (Human), UniProt P56817)", "pIC50": 7.14}
{"input.smiles": "Cc1nc(OCC(F)(F)F)cnc1C(=O)Nc1ccc(F)c([C@@]2(C(F)F)N=C(N)O[C@@H]3C[C@@H]32)c1", "test.system": "Beta Secretase enzyme (BACE) (Homo sapiens (Human), UniProt P56817)", "pIC50": 7.30}
{"input.smiles": "NC1=N[C@@](c2cc(NC(=O)C#Cc3ccccc3)ccc2F)(C(F)F)[C@H]2C[C@H]2O1", "test.system": "Beta Secretase enzyme (BACE) (Homo sapiens (Human), UniProt P56817)", "pIC50": 6.61}

[1] NC1=N[C@@](c2cc(NC(=O)c3cnc(Cl)cn3)ccc2F)(C(F)F)[C@H]2C[C@H]2O1
[2] CC#CCOc1cnc(C(=O)Nc2ccc(Cl)c([C@@]3(C(F)F)N=C(N)O[C@@H]4C[C@@H]43)c2)cn1
From the recorded data, which exceeds the other in pIC50: 1 or 2 ? Please indicate the selected item by its label.
2
(2: 8.77, 1: 7.43)

[A] C#CCOc1cnc(C(=O)Nc2ccc(F)c([C@@]3(CF)N=C(N)O[C@@H]4C[C@@H]43)c2)cn1
[B] N#Cc1ccc(C(=O)Nc2cnc(F)c([C@@]3(CF)N=C(N)O[C@@H]4C[C@@H]43)c2)nc1
Field: lower pIC50 | Options: A / B Please indicate the selected item by its label.
B

* * *

Target: UniProt P07339
Experiment: In vitro enzymatic Cathepsin D (Cat D) FRET assay
Format: biochemical
Conditions: read-out: CatD IC50
Counter-ions that a name gives are not always drawn.
property.measured: IC50 (µM)

Examples with answers:
{"molecule": "NC1=N[C@@](c2cc(NC(=O)[C@@H]3CCOC3)ccc2F)(C(F)F)[C@H]2C[C@H]2O1 (mixture of isomers)", "measurement.unit": "µM", "measured.value": 188}
{"molecule": "COc1cnc(C(=O)Nc2cc(Cl)c(F)c([C@@]3(CF)N=C(N)O[C@@H]4C[C@@H]43)c2)c(C)n1", "measurement.unit": "µM", "measured.value": 574}
{"molecule": "NC1=N[C@@](c2cc(NC(=O)c3c(F)cc(F)cc3F)ccc2F)(C(F)F)[C@H]2C[C@H]2O1", "measurement.unit": "µM", "measured.value": 960}
{"molecule": "C#CCOc1cnc(C(=O)Nc2cc(F)c(Cl)c([C@@]3(CF)N=C(N)O[C@@H]4C[C@@H]43)c2)cn1", "measurement.unit": "µM", "measured.value": 41}
{"molecule": "COCC(=O)Nc1ccc(F)c([C@@]2(C(F)F)N=C(N)O[C@@H]3C[C@@H]32)c1", "measurement.unit": "µM", "measured.value": 48.1}

[I] NC1=N[C@@](c2cc(NC(=O)c3cnc(OCc4nccs4)cn3)ccc2F)(C(F)F)[C@H]2C[C@H]2O1
[II] Cc1cc(C(F)(F)F)cnc1C(=O)Nc1cc(F)c(F)c([C@@]2(CF)N=C(N)O[C@@H]3C[C@@H]32)c1 [Example 51]
From the recorded data, which exceeds the other in IC50: I or II ? Please indicate the selected item by its label.
I

[A] Cc1nc(Cl)cnc1C(=O)Nc1ccc(F)c([C@@]2(C(F)F)N=C(N)O[C@@H]3C[C@@H]32)c1 (stereo in doubt)
[B] NC1=N[C@@](c2cc(NC(=O)C3CC3)ccc2F)(C(F)F)[C@H]2C[C@H]2O1
[C] C[C@H](F)c1nc(C(=O)Nc2ccc(F)c([C@@]3(C(F)F)N=C(N)O[C@@H]4C[C@@H]43)c2)co1 (mixture of isomers) [Example 175, trifluoroacetate]
Place the items in sequence of falling IC50. Respond with an ordered listing of the labels, as requested.
C, A, B

* * *

Target: Cathepsin D (Cat D) (Homo sapiens (Human))
Assay: In vitro enzymatic Cathepsin D (Cat D) FRET assay
Type: biochemical
Conditions: read-out: CatD IC50
property.measured: IC50 (µM)

Examples with answers:
{"compound": "NC1=N[C@@](c2cc(NC(=O)c3cccc(Cl)n3)ccc2F)(C(F)F)[C@H]2C[C@H]2O1 [Example 286]", "IC50 [µM]": 725}
{"compound": "NC1=N[C@](c2cc(-c3nc4ccc(Cl)cc4o3)ccc2F)(C(F)F)[C@@H]2C[C@@H]2O1 [Example 425]", "IC50 [µM]": 240}
{"compound": "N#Cc1cnc2c(Nc3cc(F)c(F)c([C@]4(C(F)F)N=C(N)O[C@H]5C[C@H]54)c3)ncc(F)c2c1 [Example 366]", "IC50 [µM]": 128}

[a] Cc1ccc(NC(=O)c2ccc(C#N)cn2)cc1[C@@]1(C(F)F)N=C(N)O[C@@H]2C[C@@H]21 [Example 269]
[b] NC1=N[C@@](c2cc(NC[C@@H]3C[C@H]3c3ccccc3)ccc2F)(C(F)F)[C@H]2C[C@H]2O1 [Example 371]
Field: lower IC50 | Options: a / b Please indicate the selected item by its label.
b
(b: 102 µM, a: 716 µM)

* * *

Target: Cathepsin D (Cat D) (Homo sapiens (Human))
Test: In vitro enzymatic Cathepsin D (Cat D) FRET assay
Assay type: biochemical
Details: read-out: CatD IC50
property.measured: IC50 (µM)

Examples with answers:
{"compound": "CC#Cc1cnn(-c2ccc(F)c([C@@]3(C(F)F)N=C(N)O[C@@H]4C[C@@H]43)c2)c1", "IC50 (µM)": 386}
{"compound": "CSc1c(F)cc(NC(=O)c2ccc(Cl)cn2)cc1[C@@]1(CF)N=C(N)O[C@@H]2C[C@@H]21 (racemic)", "IC50 (µM)": 655}
{"compound": "CC(C)c1cccnc1C(=O)Nc1ccc(F)c([C@@]2(C(F)F)N=C(N)O[C@@H]3C[C@@H]32)c1", "IC50 (µM)": 1260}
{"compound": "NC1=N[C@@](c2cc(NC(=O)[C@H]3CCCO3)ccc2F)(C(F)F)[C@H]2C[C@H]2O1 (mixture of isomers)", "IC50 (µM)": 319}
{"compound": "NC1=N[C@@](c2cc(NC(=O)c3ncc(Cl)cc3CO)ccc2F)(C(F)F)[C@H]2C[C@H]2O1", "IC50 (µM)": 276}

[A] CC#CCOc1cnc(C(=O)Nc2ccc(Cl)c([C@]3(C(F)F)N=C(N)O[C@H]4C[C@H]43)c2)cn1 [Example 216]
[B] COc1cnc(C(=O)Nc2cc(F)c(Cl)c([C@@]3(CF)N=C(N)O[C@@H]4C[C@@H]43)c2)cn1
From the recorded data, which exceeds the other in IC50: A or B ? Please indicate the selected item by its label.
B
(B: 897 µM, A: 500 µM)

* * *

Biological target: Cathepsin D (Cat D) (Homo sapiens (Human), UniProt P07339)
Sequence (P07339 65-412, species assumed): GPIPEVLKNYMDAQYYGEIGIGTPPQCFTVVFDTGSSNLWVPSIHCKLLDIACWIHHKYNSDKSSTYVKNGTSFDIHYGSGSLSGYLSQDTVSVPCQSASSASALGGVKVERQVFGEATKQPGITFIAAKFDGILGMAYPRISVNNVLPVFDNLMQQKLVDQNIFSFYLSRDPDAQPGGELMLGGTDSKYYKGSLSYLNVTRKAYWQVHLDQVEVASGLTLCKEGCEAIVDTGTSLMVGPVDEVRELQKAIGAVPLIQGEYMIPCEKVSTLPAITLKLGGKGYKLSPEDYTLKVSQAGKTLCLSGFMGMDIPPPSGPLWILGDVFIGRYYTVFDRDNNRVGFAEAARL
Experiment: In vitro enzymatic Cathepsin D (Cat D) FRET assay
Format: biochemical
Conditions: read-out: CatD IC50
property.measured: IC50 (µM)

{"compound": "CC#CCOc1cnc(C(=O)Nc2cc(F)c(F)c([C@@]3(CF)N=C(N)O[C@@H]4C[C@@H]43)c2)cn1", "test.system": "Cathepsin D (Cat D) (Homo sapiens (Human), UniProt P07339)", "measurement.unit": "µM", "measured.value": 256}
{"compound": "N#Cc1ccc(C(=O)Nc2ccc(Cl)c([C@@]3(C(F)F)N=C(N)O[C@@H]4C[C@@H]43)c2)nc1 [Example 93]", "test.system": "Cathepsin D (Cat D) (Homo sapiens (Human), UniProt P07339)", "measurement.unit": "µM", "measured.value": 1300}
{"compound": "NC1=N[C@](c2cc(NC(=O)c3ccc(Cl)cn3)cc(F)c2F)(C(F)F)[C@@H]2C[C@@H]2O1", "test.system": "Cathepsin D (Cat D) (Homo sapiens (Human), UniProt P07339)", "measurement.unit": "µM", "measured.value": 472}
{"compound": "Cc1cnc(C(=O)Nc2ccc(F)c([C@@]3(C(F)F)N=C(N)O[C@@H]4C[C@@H]43)c2)c(C)c1", "test.system": "Cathepsin D (Cat D) (Homo sapiens (Human), UniProt P07339)", "measurement.unit": "µM", "measured.value": 753}
{"compound": "N#Cc1ccc(C(=O)Nc2ccc(Cl)c([C@]3(C(F)F)N=C(N)O[C@H]4C[C@H]43)c2)nc1", "test.system": "Cathepsin D (Cat D) (Homo sapiens (Human), UniProt P07339)", "measurement.unit": "µM", "measured.value": 1920}
{"compound": "NC1=N[C@@](c2cc(NC(=O)c3ccc(OCc4nccs4)cn3)ccc2F)(C(F)F)[C@H]2C[C@H]2O1", "test.system": "Cathepsin D (Cat D) (Homo sapiens (Human), UniProt P07339)", "measurement.unit": "µM", "measured.value": 360}
{"compound": "CC#CCOc1cnc(C(=O)Nc2ccc(Cl)c([C@@]3(CF)N=C(N)O[C@@H]4C[C@@H]43)c2)cn1", "test.system": "Cathepsin D (Cat D) (Homo sapiens (Human), UniProt P07339)", "measurement.unit": "µM", "measured.value": 1830}
{"compound": "NC1=N[C@](CF)(c2cc(NC(=O)c3ccc(Cl)cn3)ccc2F)[C@H]2C[C@H]2O1", "test.system": "Cathepsin D (Cat D) (Homo sapiens (Human), UniProt P07339)", "measurement.unit": "µM", "measured.value": 472}

[I] NC1=N[C@@](c2cc(Nc3ncnc4cc(Cl)cnc34)ccc2F)(C(F)F)[C@H]2C[C@H]2O1
[II] NC1=N[C@@](c2cc(NC(=O)c3ncc(Cl)cn3)ccc2F)(C(F)F)[C@H]2C[C@H]2O1
Field: lower IC50 | Options: I / II Please indicate the selected item by its label.
I
(I: 141 µM, II: 2990 µM)

[a] C=CCOc1cnc(C(=O)Nc2ccc(F)c([C@@]3(C(F)F)N=C(N)O[C@@H]4C[C@@H]43)c2)cn1
[b] NC1=N[C@@](c2cc(NC(=O)c3nn(C(F)F)cc3Cl)ccc2F)(C(F)F)[C@H]2C[C@H]2O1
[c] C[C@@H](Nc1ccc(F)c([C@@]2(C(F)F)N=C(N)O[C@@H]3C[C@@H]32)c1)c1ccc(Cl)cn1 (mixture of isomers)
Place the items in sequence of falling IC50. Respond with an ordered listing of the labels, as requested.
a, b, c
